All figures here come from ChEMBL document CHEMBL3862032.

- protocol-text: Cytotoxicity against MDR1 deficient human KB cells assessed as decrease in cell viability after 4 days by MTS assay
- Assay type: functional, cell-based
- condition-summary: 96 h
pIC50: −log10 of the molar value.
Quick reference for pIC50 among some molecules
test-readout: pIC50

{"smi": "CC[C@H](C)[C@H](NC(=O)[C@@]1(C)CCCN1C)C(=O)N(C)[C@H](C[C@@H](OC(C)=O)c1nc(C(=O)NCCc2cscn2)cs1)C(C)C", "measured": 7.06}
{"smi": "CC[C@H](C)[C@H](NC(=O)[C@H]1CCCCN1C)C(=O)N(C)[C@H](C[C@@H](OC(C)=O)c1nc(C(=O)N[C@H](CNS(C)(=O)=O)Cc2ccccc2)cs1)C(C)C", "measured": 9.05}
{"smi": "CC[C@H](C)[C@H](NC(=O)[C@H]1CCCCN1C)C(=O)N(C)[C@H](C[C@@H](OC(C)=O)c1nc(C(=O)N[C@@H](Cc2ccccc2)C[C@H](C)C(=O)O)cs1)C(C)C", "measured": 9.48}
{"smi": "CC[C@H](C)[C@H](NC(=O)[C@@]1(C)CCCN1C)C(=O)N(C)[C@H](C[C@@H](OC(C)=O)c1nc(C(=O)N[C@@H](Cc2ccc(N)cc2)C[C@H](C)C(=O)O)cs1)C(C)C", "measured": 9.30}
{"smi": "CC[C@H](C)[C@H](NC(=O)[C@H]1CCCCN1C)C(=O)N(C)[C@H](C[C@@H](OC(C)=O)c1nc(C(=O)N[C@@H](Cc2ccccc2)[C@@H](O)C(=O)OC)cs1)C(C)C", "measured": 8.92}

====

- protocol-text: Cytotoxicity against human KB 8.5 cells expressing MDR1 assessed as decrease in cell viability after 4 days by MTS assay
- Type: functional, cell-based
- condition-summary: KB 8.5, 96 h

{"compound": "CC[C@H](C)[C@H](NC(=O)[C@H]1CCCCN1C)C(=O)N(C)[C@H](C[C@@H](OC(C)=O)c1nc(C(=O)N[C@@H](Cc2ccccc2)[C@@H](O)C(=O)OC)cs1)C(C)C", "IC50": "13.4 nM"}
{"compound": "CC[C@H](C)[C@H](NC(=O)[C@H]1CCCCN1C)C(=O)N(C)[C@H](C[C@@H](OC(C)=O)c1nc(C(=O)N[C@@H](Cc2ccccc2)c2nccs2)cs1)C(C)C", "IC50": "13.5 nM"}
{"compound": "CC[C@H](C)[C@H](NC(=O)[C@@]1(C)CCCN1C)C(=O)N(C)[C@H](C[C@@H](OC(C)=O)c1nc(C(=O)NC(CO)Cc2ccccc2)cs1)C(C)C (mixture of isomers)", "IC50": "69.2 nM"}
{"compound": "CC[C@H](C)[C@H](NC(=O)[C@H]1CCCCN1C)C(=O)N(C)[C@H](C[C@@H](OC(C)=O)c1nc(C(=O)N[C@H](CNS(C)(=O)=O)Cc2ccccc2)cs1)C(C)C", "IC50": "31.7 nM"}

====

- protocol-text: Cytotoxicity against MDR1 deficient human KB cells assessed as decrease in cell viability after 4 days by MTS assay
- Type: functional, cell-based
- condition-summary: 96 h
Quick reference for IC50 among some molecules
test-readout: IC50 (nM)

{"smi": "CC[C@H](C)[C@H](NC(=O)[C@H]1CCCCN1C)C(=O)N(C)[C@H](C[C@@H](OC(C)=O)c1nc(C(=O)NCCc2cscn2)cs1)C(C)C", "test-readout": "IC50", "measured": 3.69}
{"smi": "CCNC(=O)O[C@H](C[C@H](C(C)C)N(C)C(=O)[C@@H](NC(=O)[C@@]1(C)CCCN1C)[C@@H](C)CC)c1nc(C(=O)N[C@@H](Cc2ccc(N)cc2)C[C@H](C)C(=O)O)cs1", "test-readout": "IC50", "measured": 0.77}
{"smi": "CC[C@H](C)[C@H](NC(=O)[C@@]1(C)CCCN1C)C(=O)N(C)[C@H](C[C@@H](OC(C)=O)c1nc(C(=O)N[C@@H](Cc2ccccc2)C[C@H](C)C(=O)O)cs1)C(C)C", "test-readout": "IC50", "measured": 0.11}
{"smi": "CC[C@H](C)[C@H](NC(=O)[C@H]1CCCN1C)C(=O)N(C)[C@H](C[C@@H](OC(C)=O)c1nc(C(=O)N[C@@H](Cc2ccccc2)C[C@H](C)C(=O)OC)cs1)C(C)C", "test-readout": "IC50", "measured": 1.26}
{"smi": "CC[C@H](C)[C@H](NC(=O)[C@H]1CCCCN1C)C(=O)N(C)[C@H](C[C@@H](OC(C)=O)c1nc(C(=O)N[C@@H](Cc2ccccc2)C(=O)N2CCCCC2)cs1)C(C)C", "test-readout": "IC50", "measured": 3.71}
